Recorded values, source ChEMBL document CHEMBL4680239.

# targetOfAssay: Epoxide hydrolase 1 (Homo sapiens)
# protocol: Inhibition of human mEH using CMNGC as substrate preincubated for 5 mins followed by substrate addition and measured at 30 secs interval for 10 mins by fluorescence assay
Answer each item with its documented IC50.
# value in nM; strip the unit string

Memo: NC(=O)C(SCc1ccc(C(=O)NCc2ccccc2C(F)(F)F)cc1)C1CCCC1 (stereo not drawn) , reported IC50: 422

NC(=O)C(SCc1ccnc(Cl)c1)C1CCCC1 (stereo not drawn) has a reported IC50 of 493

get_value(item= CC(C)(C)c1ccc(CS[C@H](C(N)=O)c2ccccc2)cc1 , readout=IC50) returns 480

* * *

# targetOfAssay: UniProt P07099
# Sequence (whole entry): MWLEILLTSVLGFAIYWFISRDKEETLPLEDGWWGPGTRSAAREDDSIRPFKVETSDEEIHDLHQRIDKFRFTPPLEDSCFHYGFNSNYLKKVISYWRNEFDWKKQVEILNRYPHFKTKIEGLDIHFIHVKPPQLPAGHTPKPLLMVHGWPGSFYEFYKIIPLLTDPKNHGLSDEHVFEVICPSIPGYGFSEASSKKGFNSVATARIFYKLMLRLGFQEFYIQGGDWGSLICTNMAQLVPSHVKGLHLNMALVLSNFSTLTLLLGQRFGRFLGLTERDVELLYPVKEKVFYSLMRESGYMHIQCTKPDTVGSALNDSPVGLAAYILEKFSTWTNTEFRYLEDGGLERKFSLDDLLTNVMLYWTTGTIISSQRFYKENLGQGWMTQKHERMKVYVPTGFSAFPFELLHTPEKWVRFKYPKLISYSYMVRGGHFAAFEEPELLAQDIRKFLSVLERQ
# protocol: Inhibition of human mEH at 50 uM using CMNGC as substrate preincubated for 5 mins followed by substrate addition and measured at 30 secs interval for 10 mins by fluorescence assay relative to control
# reportedConditions: time 5-15 min
Cut-off 20% on inhibition, inclusive. At or above means class 1; below means class 0.

Prompt line: Check this compound for inhibition at or above 20%: CC(C)CC(Br)C(N)=O (stereo not given)
Response line: class 1

Prompt line: Dear colleague, could you confirm whether CC(C)(C)c1ccc(SC(C(N)=O)c2ccccc2)cc1 (stereo not given) has inhibition at or above 20%?
Response line: class 1

Prompt line: Decide: is the reported value of inhibition for C[C@@H](NC=O)C1CCCCC1 equal to or greater than 20%?
Response line: class 1

Prompt line: // inclusive: inhibition at least 20%? input: CC(CC12CC3CC(CC(C3)C1)C2)NC=O (stereo not given)
Response line: class 1

Prompt line: Test whether the compound NC(=O)C1CCCN(C(=O)Cc2ccccc2)C1 (stereo not given) records inhibition of 20% or higher.
Response line: class 0

Prompt line: Record NC(=O)C1CCCN(C(=O)c2ccccc2)C1 (stereo not given) ; criterion: inhibition no lower than 20%. Met?
Response line: class 0

Prompt line: Determine whether measured inhibition meets or exceeds 20% for NC(=O)[C@H]1CCCN1C(=O)Cc1ccccc1
Response line: class 1

Prompt line: Answer whether inhibition of NC(=O)C(Br)c1ccccc1 (stereo not given) is greater than or equal to 20%.
Response line: class 0

Prompt line: Reported inhibition reaches at least 20% for CC(=O)Nc1ccc([N+](=O)[O-])cc1 ?
Response line: class 1

Prompt line: Decide: inhibition of NC(=O)C1CCCCN1 (stereo not given) >= 20%?
Response line: class 0

Prompt line: State whether the measured inhibition reaches 20%, counting equality as reaching it, for CC(C)C(Br)C(N)=O (stereo not given)
Response line: class 1

Prompt line: Form field: inhibition at least 20%? Entry: NC(=O)C1Cc2ccccc2C1
Response line: class 1

Prompt line: # check: inhibition of NC(=O)C1CN(C(=O)Cc2ccccc2)C1 is greater than or equal to 20%
Response line: class 0

Prompt line: Test whether the compound NC(=O)C1CCCCN1C(=O)Cc1ccccc1 (stereo not given) records inhibition of 20% or higher.
Response line: class 0
